# measurementNotes: Oral bioavailability in Sprague-Dawley rat plasma at 15 mg/kg after 0.25 to 24 hrs by LC-MS analysis
# Format: ADME, organism-based
# experimentalContext: time 0.25-24 hrs
propertyLabel: bioavailability (%)
Please state the figure in %; there is no need to write the unit.

### Prompt Return reported bioavailability; argument: Cc1ccccc1CN1C(=O)C2=C(CCN(Cc3ccccc3)C2)N2CCN=C12.Cl.Cl.O
### Response 15.2

### Prompt Another compound to look at: Cl.Cl.O.O=c1nc2n(c3c1CN(Cc1ccccc1)CC3)CCN2Cc1ccc(F)c(Br)c1
### Response 61.1

----------
Record form. Attribute: clearance. Fill in for each entry.
# measurementNotes: Clearance in Sprague-Dawley rat plasma at 5 mg/kg, iv after 0.083 to 24 hrs by LC-MS analysis
# Type: ADME, organism-based
# experimentalContext: time 0.083-24 hrs
# number only, unit mL/min/kg dropped from output

### Prompt Recorded clearance of Cl.Cl.O.O=c1nc2n(c3c1CN(Cc1ccccc1)CC3)CCN2Cc1ccc(F)c(Br)c1 , please.
### Response 35.7

### Prompt Lookup Cc1ccccc1CN1C(=O)C2=C(CCN(Cc3ccccc3)C2)N2CCN=C12.Cl.Cl.O
### Response 42.7

----------
Would you kindly list EC50 for each of these molecules?
# experimentalSystem: ATP-dependent Clp protease proteolytic subunit, mitochondrial (Homo sapiens)
# measurementNotes: Agonist activity at human CLpP (57 to 277 amino acids) expressed in Escherichia coli using fluorogenic peptide AC-WLA-AMC as substrate incubated for 10 mins by fluorescence based assay
Output spec: scalar in nM, unitless text.

### Prompt Write down the reported EC50 of O=c1nc2n(c3c1CN(Cc1ccccc1)CC3)CCN2Cc1ccncc1 , test system: ATP-dependent Clp protease proteolytic subunit, mitochondrial (Homo sapiens).
### Response 1130

### Prompt Next: O=c1nc2n(c3c1CN(Cc1ccccc1)CC3)CCN2Cc1ccc(F)cc1F
### Response 160

### Prompt Okay, and O=c1nc2n(c3c1CN(Cc1ccccc1)CC3)CCN2Cc1ccc2ccccc2c1 ?
### Response 360

### Prompt What about Cc1ccccc1CN1CCn2c1nc(=O)c1c2CCN(CCc2ccccc2)C1 ?
### Response 1090

### Prompt Input O=c1nc2n(c3c1CN(Cc1ccccc1)CC3)CCN2CCc1ccccc1
### Response 420

### Prompt And what about the molecule O=c1nc2n(c3c1CN(Cc1ccccc1)CC3)CCN2Cc1ccccc1 ?
### Response 120

### Prompt Please give the result for Cc1cccc(CN2CCc3c(c(=O)nc4n3CCN4Cc3ccccc3C)C2)c1 too.
### Response 510

### Prompt Now the molecule Cc1cccc(CN2CCn3c2nc(=O)c2c3CCN(Cc3ccccc3)C2)c1
### Response 390

----------
Kindly supply the reported EC50 values for the records listed here.
# experimentalSystem: ATP-dependent Clp protease proteolytic subunit, mitochondrial (Homo sapiens, UniProt Q16740)
# Sequence (Q16740 whole entry, the tested form may be a part): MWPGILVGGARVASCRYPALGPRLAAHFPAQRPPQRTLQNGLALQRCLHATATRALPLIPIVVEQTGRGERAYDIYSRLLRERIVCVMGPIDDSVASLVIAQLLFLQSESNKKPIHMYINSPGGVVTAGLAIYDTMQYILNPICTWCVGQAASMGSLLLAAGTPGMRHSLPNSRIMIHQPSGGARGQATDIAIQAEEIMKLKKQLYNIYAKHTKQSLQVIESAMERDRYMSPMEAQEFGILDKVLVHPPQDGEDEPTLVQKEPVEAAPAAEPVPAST
# measurementNotes: Agonist activity at human CLpP (57 to 277 amino acids) expressed in Escherichia coli using fluorogenic peptide AC-WLA-AMC as substrate incubated for 10 mins by fluorescence based assay
All answers are understood in nM, so give the number only.

### Prompt Find the recorded EC50 belonging to O=c1nc2n(c3c1CN(Cc1ccccc1)CC3)CCN2Cc1ccc(C(F)(F)F)cc1 and report it.
### Response 290

### Prompt Moving on to Cc1ccccc1CN1CCn2c1nc(=O)c1c2CCN(Cc2cccc(C#N)c2)C1
### Response 580

### Prompt Now this one: Cc1ccccc1CN1CCn2c1nc(=O)c1c2CCN(Cc2ccc(F)c(F)c2)C1
### Response 320

### Prompt Try the compound COc1ccccc1CN1CCn2c1nc(=O)c1c2CCN(Cc2ccccc2)C1
### Response 110
